test: qHTS for Antimalaria activity screened against the NCATS CANVASS Library (AID 1347380); further: nearly all actives have a fitted effect of over 40% in size; conditions: P. falciparum Dd2 growth, SYBR Green fluorescence, 72 h; series mostly up to 28.7 µM
Inconclusive results are not listed. The source made the active and inactive calls. The call rests on the fitted dose curve; in most records, active means well fitted cell-killing curve with a large enough effect; inconclusive means small, poorly fitted or top-dose-only effect, or effect the other way; inactive means no such curve, though single readings can be large or run the other way.
Your response should consist of one outcome taken from active, inactive

## Task Name the outcome recorded for C[C@@H]1O[C@@H](Oc2c(-c3ccc(O)cc3)oc3cc(O)cc(O)c3c2=O)[C@H](O)[C@H](O)[C@H]1O in the assay.
## Result inactive

## Task Name the outcome recorded for C[C@@]12CCC[C@@](C)(C(=O)O)[C@H]1C[C@@H](O)[C@]13C[C@H]4C[C@H](O[C@@]4(C)C1)[C@@H]23 in the assay.
## Result inactive

## Task Name the outcome recorded for CN1CC[C@]2(c3cccc4c3N[C@@H]3N(C)CC[C@]43[C@@]34CCN(C)[C@@H]3Nc3ccccc34)c3ccccc3N[C@H]12 in the assay.
## Result active

## Task Name the outcome recorded for CCCCCCCCCCCCCCC[C@H](O)C[C@@H](O)C[C@@H](O)C[C@@H](O)C[C@@H](O)C[C@H]1CC=CC(=O)O1 in the assay.
## Result active
